system: endothelial cells; experiment: Anti-vascular score (AVS) on Fast Green/H&E slides of tumor cell cultures, averaged over paired comparisons; format: cell-based, human; conditions: ratio of vehicle-corrected AVS to antitumor score; concentrations as in Table 1
Measured (AVS − VAVS)/AT Ratio (Avg) values are reported for all entries that follow.
readout name: (AVS − VAVS)/AT Ratio (Avg)

• CCN(CC)CCNC(=O)c1c(C)[nH]c(/C=C2\C(=O)Nc3ccc(F)cc32)c1C [Sunitinib, sunitinib] = 0.19
• C#Cc1cccc(Nc2ncnc3cc(OCCOC)c(OCCOC)cc23)c1 [Erlotinib, erlotinib] = 0.19
• N.N.[Cl][Pt][Cl] [Cisplatin] = 0.01
• COc1cc2ncnc(Nc3ccc(F)c(Cl)c3)c2cc1OCCCN1CCOCC1 [Gefitinib, gefitinib] = 0.16
